Cited source: ChEMBL document CHEMBL1134079

Organism: Cavia porcellus
method.description: In vitro antiplatelet activity against guinea pig platelet rich plasma aggregated by collagen
Assay type: functional
settings: read-out: IC50
pIC50: −log10 of the molar value.
measurement.type: pIC50

>>> recorded_value("c1ccc2c(c1)OC(N1CCCC1)c1cnc(N3CCOCC3)nc1-2 (stereo unspecified)")
4.10
>>> recorded_value("c1ccc2c(c1)OC(N1CCOCC1)c1cnc(N3CCOCC3)nc1-2 (stereo unspecified)")
4.22
>>> recorded_value("c1ccc2c(c1)OC(N1CCOCC1)c1cnc(N3CCCC3)nc1-2 (stereo unspecified)")
4.30
>>> recorded_value("c1ccc2c(c1)OC(N1CCCCC1)c1cnc(N3CCOCC3)nc1-2 (stereo unspecified)")
3.70
>>> recorded_value("c1ccc2c(c1)OC(N1CCOCC1)c1cnc(N3CCCCC3)nc1-2 (stereo unspecified)")
4.22
>>> recorded_value("c1ccc2c(c1)OC(N1CCCC1)c1cnc(N3CCCC3)nc1-2 (stereo unspecified)")
3.77
